Measured Ki values are reported for all entries that follow.
biological target: isolated recombinant JAK2 kinase domain (Homo sapiens (Human), UniProt O60674); assay: JAK2 enzyme assay (Caliper LabChip, Ki)
Sequence (O60674 849-1124): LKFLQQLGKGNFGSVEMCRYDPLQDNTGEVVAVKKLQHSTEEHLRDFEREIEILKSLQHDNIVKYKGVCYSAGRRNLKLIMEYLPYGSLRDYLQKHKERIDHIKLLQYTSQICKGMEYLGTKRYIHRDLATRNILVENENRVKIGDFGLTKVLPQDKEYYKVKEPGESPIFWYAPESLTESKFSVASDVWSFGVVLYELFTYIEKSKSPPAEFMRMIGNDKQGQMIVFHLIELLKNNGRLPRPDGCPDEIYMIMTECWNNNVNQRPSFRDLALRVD
I only need the number, in nM, no unit after it.

Query: Reported Ki, compound `N#CCC1(n2cc(C(N)=O)c(NC(=O)C3CC3)n2)CCN(C2CCN(C(=O)c3ccnc(C(F)(F)F)c3F)CC2)CC1` : ____
Response: 152

Query: Reported Ki, compound `N#CCC1(n2cc(C(N)=O)c(NC(=O)C3CC3)n2)CCN(C(=O)NC2CC(F)(F)C2)CC1` : ____
Response: 48.4

Query: Reported Ki, compound `COC1(C(F)(F)F)CN([C@H]2CC[C@@](CC#N)(n3cc(C(N)=O)c(NC(=O)C4CC4)n3)CC2)C1` : ____
Response: 18.7

Query: Reported Ki, compound COC(=O)Nc1nn(C2(CC#N)CCN(Cc3ccc(C4CC4)cc3)CC2F)cc1C(N)=O (stereo not drawn) : ____
Response: 2.2

Query: Reported Ki, compound `N#CC[C@]1(n2cc(C(N)=O)c(NC(=O)C3CC3)n2)CC[C@@H](N2CC(F)(F)C2)CC1` : ____
Response: 18.4

Query: Reported Ki, compound CCc1ccc(-c2ccc(CN3CCC(CC#N)(n4cc(C(N)=O)c(NC(=O)C5CC5C#N)n4)C(F)C3)cc2O)cc1 (stereo not drawn) [Example 222] : ____
Response: 0.43

Query: Reported Ki, compound COC(=O)Nc1nn(C2(CC#N)CCN(Cc3c(F)cc(-c4ccccc4)c(O)c3F)CC2F)cc1C(N)=O (stereo not drawn) : ____
Response: 0.25

Query: Reported Ki, compound `Cc1cnn(-c2ccc(CN3CCC(CC#N)(n4cc(C(N)=O)c(NC(=O)C5CC5)n4)CC3)cc2)n1` : ____
Response: 5.6

Query: Reported Ki, compound `N#CCC1(n2cc(C(N)=O)c(NC(=O)C3CC3)n2)CCN(Cc2ccc(C(F)(F)F)cc2)CC1` : ____
Response: 134

Query: Reported Ki, compound `N#CCC1(n2cc(C(N)=O)c(NC(=O)C3CC3)n2)CCN(Cc2ccc(-c3cccnc3)cc2)CC1` : ____
Response: 39.4

Query: Reported Ki, compound N#CCC1(n2cc(C(N)=O)c(NC(=O)C3CC3)n2)CCC(Nc2ccc(C3=CCCC3)cc2)CC1 (stereo not drawn) : ____
Response: 8.1

Query: Reported Ki, compound `N#CCC1(n2cc(C(N)=O)c(NC(=O)C3CC3)n2)CCN(Cc2cnc(-c3ccccc3)cc2F)CC1` : ____
Response: 0.74

Query: Reported Ki, compound `CC(=O)Nc1cc(CN2CCC(CC#N)(n3cc(C(N)=O)c(NC(=O)C4CC4)n3)CC2)ccc1Cl` : ____
Response: 38.4

Query: Reported Ki, compound N#CCC1(n2cc(C(N)=O)c(NC(=O)C3CC3)n2)CCN(Cc2ccc(-c3ccco3)cc2)CC1F (stereo not drawn) : ____
Response: 0.25

Query: Reported Ki, compound N#CC[C@]1(n2cc(C(N)=O)c(NC(=O)C3CC3)n2)CC[C@H](N2CC(C(F)(F)F)C2)CC1 (single isomer, unassigned) : ____
Response: 11

---

Measured Ki values are reported for all entries that follow.
molecular target: isolated recombinant JAK1 kinase domain (Homo sapiens (Human)); test: JAK1 enzyme assay (Caliper LabChip, Ki); format: biochemical; conditions: read-out: JAK1 Ki
Sequence (P23458 875-1153): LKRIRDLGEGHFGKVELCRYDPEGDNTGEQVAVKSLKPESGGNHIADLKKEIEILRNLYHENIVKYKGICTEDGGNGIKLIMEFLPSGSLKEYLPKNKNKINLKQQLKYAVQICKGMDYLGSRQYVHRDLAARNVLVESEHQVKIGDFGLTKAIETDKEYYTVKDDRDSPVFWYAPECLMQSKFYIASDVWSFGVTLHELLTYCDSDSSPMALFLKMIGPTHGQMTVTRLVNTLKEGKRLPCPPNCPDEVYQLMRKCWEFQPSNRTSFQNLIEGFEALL
I only need the number, in nM, no unit after it.

Query: Reported Ki, compound `N#CCC1(n2cc(C(N)=O)c(NC(=O)C3CC3)n2)CCN(Cc2cccc(F)c2)CC1` : ____
Response: 2.4

Query: Reported Ki, compound N#CCC1(n2cc(C(N)=O)c(NC(=O)C3CC3C#N)n2)CCN(Cc2ccc(-c3ccccc3)nc2F)CC1F (centres unmarked) : ____
Response: 0.31

Query: Reported Ki, compound `N#CCC1(n2cc(C(N)=O)c(NC(=O)C3CC3)n2)CCN(Cc2ccc(-n3cncn3)cc2)CC1` : ____
Response: 99.7

New cases:
Query: Reported Ki, compound `N#CCC1(n2cc(C(N)=O)c(NC(=O)C3CC3)n2)CCN(Cc2ccc(-c3ccccc3)c(F)c2)CC1` : ____
Response: 0.6

Query: Reported Ki, compound `N#CCC1(n2cc(C(N)=O)c(NC(=O)C3CC3)n2)CCN(Cc2ccc(-c3ccc(Cl)s3)cc2)CC1` : ____
Response: 1.8

Query: Reported Ki, compound `CC[C@]1(n2cc(C(N)=O)c(Nc3ccc(S(C)(=O)=O)cc3)n2)CC[C@H](N2CC(C(F)(F)F)C2)CC1` : ____
Response: 0.94

Query: Reported Ki, compound `N#CCC1(n2cc(C(N)=O)c(NC(=O)C3CC3)n2)CCN(Cc2ccc(-c3ccc(Cl)cc3)cc2)CC1` : ____
Response: 2.1

Query: Reported Ki, compound `N#CCC1(n2cc(C(N)=O)c(NC(=O)C3CC3)n2)CCN(Cc2ccc(-c3cccnc3)cc2)CC1` : ____
Response: 8

Query: Reported Ki, compound CCOC(=O)Nc1nn(C2(CC#N)CCN(Cc3ccc(-n4nccn4)cc3)CC2F)cc1C(N)=O (centres unmarked) : ____
Response: 0.62

Query: Reported Ki, compound `N#CCC1(n2cc(C(N)=O)c(NC(=O)C3CC3)n2)CCN(C(=O)C2CC(F)(F)C2)CC1` : ____
Response: 7.5

Query: Reported Ki, compound `N#CCC1(n2cc(C(N)=O)c(NC(=O)C3CC3)n2)CCN(Cc2ccc(-c3ccccc3)cc2O)CC1` : ____
Response: 1
